Tested on: STK35
Condition Parameters: concentration: 1 μM, replicates: in singlicate; n = 1;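 further: KINOMEscan kinase panel screen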
For each record, write down the corresponding %Inh.
Numbers only, in %.

Worked examples, 5 molecules total:
COc1ccc(CNC(=O)NC2CCN(c3ccnc(Nc4ccc(OC)cc4)n3)C2)cc1 (stereo not shown) [GSK1379727] : 0
O=c1cc(N2CCOCC2)nc2n(Cc3cccc(C(F)(F)F)c3)ccn12 [GSK2297543] : 0
O=C(NOCC1CC1)c1ccc(F)c(F)c1Nc1ccc(I)cc1Cl : 0
CCc1nc(-c2cccc(C)c2)c(-c2ccnc(NCc3ccccc3)c2)s1 : 0
O=C(NCCCN1CCOCC1)c1cccc(Nc2nccc(Nc3ccc(Oc4ccccc4)cc3)n2)c1 [GW663929] : 34

Give %Inh for each of the items listed below.
1. NS(=O)(=O)c1cccc(-c2ccc3ncc(N4CCOCC4)nc3c2)c1 [GSK1535721]
2. O=C(c1ccc(-c2cc(-c3c[nH]nc3-c3ccccn3)ccn2)cc1)N1CCOCC1 [GW812171]
3. CN(C(=O)c1ccc(-c2cc(-c3c[nH]nc3-c3ccccn3)ccn2)cc1)C1CCOCC1 [GW810083]
4. Cc1ccc(NC(=O)c2ccnc(N3CCN(C)CC3)c2)cc1-c1ccc(C(=O)NCC2CC2)cc1 [GW775604]
5. COc1ccc(Nc2ncc(C#N)c(Nc3ccccc3C(N)=O)n2)cc1N1CCN(C)CC1.Cl [GSK1558669]

Result:
1. 0
2. 0
3. 0
4. 1
5. 99.3

###

Tested on: RPS6KA4(Kin.Dom.1-N-terminal)
Condition Parameters: concentration: 1 μM, replicates: in singlicate; n = 1
Kindly state %Inh for each of the entries shown.

Cl.Nc1ncnc2occ(-c3ccc(NC(=O)Nc4cc(C(F)(F)F)ccc4F)cc3)c12 [SB-707548] : 48%
c1ccc(-c2cc(-c3c[nH]nc3-c3ccccn3)ccn2)cc1 [GW576604] : 0%
CN1c2ccc(CNc3ccc(F)cc3)cc2-c2c(cnn2C)S1(=O)=O : 0%
NS(=O)(=O)c1cccc(-c2ccc3nccc(-c4cccc(S(N)(=O)=O)c4)c3c2)c1 [GW867253] : 0%

Provide the reported %Inh of each entry below, same order.
1. COc1ccc(CNC(=O)NC2CCN(c3ccnc(Nc4ccc(OC)cc4)n3)C2)cc1 (stereo not drawn) [GSK1379727]
2. CN1c2ccc(NCc3ccc(F)cc3)cc2-c2c(cnn2C)S1(=O)=O

Result:
["0%", "0%"]

###

Tested on: ERK8
Construct: gene MAPK15
Condition Parameters: concentration: 1 μM, replicates: in singlicate; n = 1
Exercise: state measured %Inh for each of the compounds provided.
Numbers only, in %.

// known answers, use as guide
O=c1cc(N2CCOCC2)nc2n(Cc3cccc4ccccc34)ccn12 : 43
Cn1cc(-c2ccc3c(c2)CCN3C(=O)Cc2ccccc2Cl)c2c(N)ncnc21 : 0

Task: Supply %Inh value. Item: O=C(NCCNc1ccnc(Nc2ccc(F)cc2)n1)c1cc2ccccc2s1
Result: 0

###

System: MEK1
Construct: gene MAP2K1
Condition Parameters: concentration: 1 μM, replicates: in singlicate; n = 1
Please respond with reported %Inh for every item in the list.
Answers are plain numbers, in %.

Cc1nnc(-c2ccc3occ(-c4ccc(C(C)O)cc4)c3c2)o1 (centres unmarked) : 10
COc1ccc(S(=O)(=O)NC2CCN(c3cc(C)nc(Nc4cccc(C#N)c4)n3)CC2)cc1.O=C(O)C(F)(F)F : 0
COc1ccc(COc2cc(-n3cnc4ccccc43)sc2C(N)=O)cc1 : 0

Give one value of %Inh per listed compound.
1. Cc1ccc(C(=O)NCC(N)=O)cc1-n1c(C)cc(OCc2ccc(F)cc2F)c(Br)c1=O
2. Nc1nc(-c2ccc3c(N)n[nH]c3c2)cc(N2CCCC2)n1
3. COCCNC(=O)c1ccc(-c2cc(C(=O)NC3CC3)cc(F)c2C)cc1
4. Fc1ccc(-c2ncn(CCCN3CCOCC3)c2-c2cccnc2)cc1
5. CNc1ncnc2[nH]ncc12
6. O=C(NCCCN1CCOCC1)c1cccc(Nc2nccc(Nc3ccc(Oc4ccccc4)cc3)n2)c1
7. COc1ccc(Nc2ncc(C#N)c(Nc3ccccc3C(N)=O)n2)cc1N1CCN(C)CC1.Cl

Result:
1: 0; 2: 0; 3: 25; 4: 27; 5: 13; 6: 71; 7: 85

Please look at the items below and tell me %Inh for each one, in order.
1. Cc1cccc(Cn2ccn3c(=O)cc(N4CCOCC4)nc23)c1
2. c1ccc(-c2cc(-c3c[nH]nc3-c3ccccn3)ccn2)cc1
3. Fc1ccc(-c2nn3c(OCC(F)(F)F)cccc3c2-c2ccncc2)cc1

Result:
1: 0; 2: 0; 3: 0

Task: Please give the documented %Inh of Nc1nccc(-c2c(-c3ccc(F)cc3)ncn2C2CCN(CC(F)(F)F)CC2)n1
Result: 0

###

Can you tell me %Inh for the items I'm about to list?
System: TXK
Condition Parameters: concentration: 1 μM, replicates: in singlicate; n = 1
Give bare numbers, in %.

Consider the reported %Inh for these compounds:
CN(C1=C(c2ccccc2)C(=O)NC1=O)c1ccccc1 [SB-334860] : 83
O=C(NOCC1CC1)c1ccc(F)c(F)c1Nc1ccc(I)cc1Cl : 0
CCc1ccnc(/C=C/c2n[nH]c3cc(Sc4ccccc4C(=O)NC)ccc23)c1 : 0
O=C(Nc1cccc(-c2nn3ncccc3c2-c2ccnc(Nc3cccc(C(F)(F)F)c3)n2)c1)c1c(F)cccc1F [GSK299495] : 76
NCC(NC(=O)c1cc(-c2cn[nH]c2)c(-c2ccnc3[nH]ccc23)s1)c1ccccc1.O=C(O)C(F)(F)F.O=C(O)C(F)(F)F (stereo not shown) [GSK1325775] : 10

For every item in the list below, what is its measured %Inh?
1. O=C(NCCNc1ccnc(Nc2ccc(F)cc2)n1)Nc1ccccc1F [GSK1379880]
2. Cl.Nc1ncnc2occ(-c3ccc(NC(=O)Nc4cc(C(F)(F)F)ccc4F)cc3)c12 [SB-707548]
3. CNc1ncnc2[nH]ncc12 [SKF-18355]
4. O=C(c1ccc(-c2cc(-c3c[nH]nc3-c3ccccn3)ccn2)cc1)N1CCOCC1 [GW812171]
5. Cc1nnc(-c2ccc3occ(-c4ccc(C(C)O)cc4)c3c2)o1 (stereo not shown)
6. Cc1c2ccc(N(C)c3ccnc(Nc4cccc(S(N)(=O)=O)c4)n3)cc2nn1Cc1ccccc1.Cl.Cl [GW787226]
7. Cl.Oc1cccc(Nc2ccnc3cc(-c4ccncc4)ccc23)c1 [GW494601]

Result:
1
0
0
11
4
17
97.6

###

Test system: PRP4
Condition Parameters: concentration: 1 μM, replicates: in singlicate; n = 1
Test Readout: %Inh (%)
Give bare numbers, in %.

CN1c2ccc(CNc3ccc(F)cc3)cc2-c2c(cnn2C)S1(=O)=O : 11

// each listed molecule needs a value for %Inh
1. NS(=O)(=O)c1cccc(-c2ccc3ncc(N4CCOCC4)nc3c2)c1
2. O=c1cc(N2CCOCC2)nc2n(Cc3cccc4ccccc34)ccn12
3. CNc1ncnc2[nH]ncc12

Result:
1: 2; 2: 2; 3: 0

###

Test system: LIMK2
Condition Parameters: concentration: 1 μM, replicates: in singlicate; n = 1
Test Readout: %Inh (%)
Numbers only, in %.

Here are 4 compounds together with their reported answers.
COc1ccc(S(=O)(=O)NC2CCN(c3cc(C)nc(Nc4cccc(C#N)c4)n3)CC2)cc1.O=C(O)C(F)(F)F : 7
O=c1cc(N2CCOCC2)nc2n(Cc3cccc(C(F)(F)F)c3)ccn12 : 7
COc1cc2ncn(-c3cc(OCc4sccc4Cl)c(C(N)=O)s3)c2cc1OC : 0
Cc1nnc(-c2ccc3occ(-c4ccc(C(C)O)cc4)c3c2)o1 (centres unmarked) : 0

Hi team, please reply with %Inh for each item in this list.
1. Cc1ccc(C(=O)NCC(N)=O)cc1-n1c(C)cc(OCc2ccc(F)cc2F)c(Br)c1=O
2. c1ccc(-c2n[nH]cc2-c2ccnc3ccccc23)nc1
3. CCn1cnc2c(N)ncnc21
4. Cc1cccc(Cn2ccn3c(=O)cc(N4CCOCC4)nc23)c1

Result:
0
30
27
10

###

Could you please report measured %Inh for the items listed next?
System: MAPKAPK2
Condition Parameters: concentration: 1 μM, replicates: in singlicate; n = 1
Give bare numbers, in %.

Answered examples (5):
O=c1cc(N2CCOCC2)nc2n(Cc3cccc4ccccc34)ccn12 : 3
O=C(Nc1cccc(-c2nn3ncccc3c2-c2ccnc(Nc3cccc(C(F)(F)F)c3)n2)c1)c1c(F)cccc1F : 35
C[C@@H](Oc1cc(-n2cnc3ccc(NC(=O)NC(C)(C)C)cc32)sc1C(N)=O)c1ccccc1Cl : 12
Fc1ccc(-c2ncn(CCCN3CCOCC3)c2-c2ccccn2)cc1 : 0
COc1cc2ncn(-c3cc(OCc4sccc4Cl)c(C(N)=O)s3)c2cc1OC : 0

Let us examine a further case.
Task: Please look at O=C1NC(=O)C(N2CCc3ccccc32)=C1c1cccc(Cl)c1 and tell me its recorded %Inh on MAPKAPK2.
Result: 3
